- assayed.system: NfCYP51 (Naegleria fowleri)
- Sequence (A0A2H4A2U9 entry or part of it): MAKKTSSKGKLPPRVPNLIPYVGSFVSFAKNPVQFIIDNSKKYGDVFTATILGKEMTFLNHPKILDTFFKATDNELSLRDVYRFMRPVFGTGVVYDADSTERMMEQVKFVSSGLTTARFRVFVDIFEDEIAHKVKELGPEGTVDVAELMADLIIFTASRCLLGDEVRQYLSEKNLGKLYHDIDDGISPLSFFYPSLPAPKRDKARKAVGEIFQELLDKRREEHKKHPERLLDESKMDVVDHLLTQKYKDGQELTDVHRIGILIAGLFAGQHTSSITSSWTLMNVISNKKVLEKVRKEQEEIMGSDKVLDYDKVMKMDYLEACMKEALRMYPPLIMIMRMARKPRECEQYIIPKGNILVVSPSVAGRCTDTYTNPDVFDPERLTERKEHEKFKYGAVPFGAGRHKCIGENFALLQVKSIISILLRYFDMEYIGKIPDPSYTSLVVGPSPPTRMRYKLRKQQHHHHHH
- protocol: biochemical
- Assay type: binding
- condition.context: 0.5 μM NfCYP51; inhibitor 0.025–0.5 μM; ≤ values estimated from linear dependence of binding; read-out: KD
readout.label: Kd

[
  {
    "compound": "Clc1cc(Cl)cc(CO[C@H](Cn2ccnc2)c2ccc(Cl)cc2Cl)c1 [Compound 10b]",
    "reported.measurement": "≤ 5 nM"
  },
  {
    "compound": "O=C(O[C@H](Cn1cncn1)c1ccc(F)cc1)c1cccc(C(F)(F)F)c1 [Compound 7]",
    "reported.measurement": "87 nM"
  },
  {
    "compound": "O=C(O[C@@H](Cn1ccnc1)c1ccc(Cl)cc1Cl)c1cccc(C(F)(F)F)c1 [Compound 5a]",
    "reported.measurement": "161 nM"
  },
  {
    "compound": "O=C(O[C@H](Cn1ccnc1)c1ccc(Cl)cc1Cl)c1ccc(Cl)cc1Cl [Compound 6b]",
    "reported.measurement": "≤ 5 nM"
  },
  {
    "compound": "Fc1ccc([C@@H](Cn2ccnc2)OCc2cc(Cl)cc(Cl)c2)cc1 [Compound 8b]",
    "reported.measurement": "7 nM"
  },
  {
    "compound": "OC(Cn1cncn1)(Cn1cncn1)c1ccc(F)cc1F [Fluconazole, fluconazole, reference compound]",
    "reported.measurement": "141 nM"
  },
  {
    "compound": "O=C(OC(Cn1ccnc1)c1ccc(F)cc1)c1cccc(C(F)(F)F)c1 (stereo not drawn) [Compound 2a]",
    "reported.measurement": "88 nM"
  },
  {
    "compound": "O=C(O[C@H](Cn1ccnc1)c1ccc(Cl)cc1Cl)c1cccc(C(F)(F)F)c1 [Compound 5b]",
    "reported.measurement": "70 nM"
  },
  {
    "compound": "FC(F)(F)c1cccc(CO[C@H](Cn2ccnc2)c2ccc(Cl)cc2Cl)c1 [Compound 9b]",
    "reported.measurement": "≤ 5 nM"
  }
]

Where do the numbers come from? From paper PMC10758121.
